biological target: Human Synovial PLA2 (Homo sapiens); construct: b) Purified human synovial fluid; from tissue; host or cells: human synovial fluid (purified); experiment: in vitro isolated phospholipase A2 assay, human synovial fluid PLA2; type: biochemical; details: at 10 μM; human synovial fluid; read-out: % Inhibition at 10 μM HSF
Please provide measured inhibition at 10 µM for the entries that follow.
Use % as the unit, but write only the number.

Would you mind telling me what inhibition at 10 µM value was observed for COc1ccc(OCCCC#CC(=O)C(F)(F)F)cc1 ?
38.7

Entry CC(C)(C#CC(=O)C(F)(F)F)Oc1ccc(OC(F)(F)F)cc1 : reported inhibition at 10 µM = ?
58.8

Bench note: what inhibition at 10 µM did CC(C)(C#CC(=O)C(F)(F)F)CCOc1ccc(Cl)cc1 show?
19.8

Any idea what inhibition at 10 µM was measured for O=C(C#CCCCCOc1ccc(Cl)cc1)C(F)(F)F ?
94.2

Requested read-out: inhibition at 10 µM. Entry: O=C(C#CCCCOc1ccc(Cl)c2ccccc12)C(F)(F)F
94.6

Which inhibition at 10 µM value is on record for O=C(C#CCCCOc1cccc(C(F)(F)F)c1)C(F)(F)F ?
90.5

I'd like to know its inhibition at 10 µM. The molecule in question is O=C(C#CCCCN1c2cccc3cccc(c23)S1(=O)=O)C(F)(F)F
84.8

---

target: Human Synovial PLA2 (Homo sapiens, UniProt P14555); construct: b) Purified human synovial fluid; from tissue; host or cells: human synovial fluid (purified); assay: in vitro isolated phospholipase A2 assay, human synovial fluid PLA2; type: biochemical; conditions: human synovial fluid; read-out: IC50 HSF
Sequence (P14555 21-144): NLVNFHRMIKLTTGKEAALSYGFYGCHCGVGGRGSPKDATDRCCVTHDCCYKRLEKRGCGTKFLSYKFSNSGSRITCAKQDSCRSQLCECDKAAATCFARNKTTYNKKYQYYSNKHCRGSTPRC
For each of the compounds below, state its pIC50.
Would you please state pIC50, meaning minus log10 of the concentration in mol/L, as a bare number?

What measured pIC50 goes with CC(C)(C)c1ccc(OCCCC#CC(=O)C(F)(F)F)cc1 ?
6.70

Using the record for O=C(C#CCCCn1c2ccccc2c2ccccc21)C(F)(F)F , report its pIC50.
7.37

Quick one: pIC50 of O=C(C#CCCCOc1ccc(Cl)cc1)C(F)(F)CCc1ccccc1 ?
6.05

Given the entry O=C(C#CCCCOc1ccc(Cl)cc1)C(F)(F)F , report its measured pIC50.
6.31

Name the recorded pIC50 for O=C(C#CCCCOc1ccc(F)cc1)C(F)(F)F .
5.05

Values were extracted from patent US5070207A.
